SYSTEM: IRE1 (Saccharomyces cerevisiae, UniProt P32361)
Construct: endogenous in cells
Sequence (P32361 19-1115): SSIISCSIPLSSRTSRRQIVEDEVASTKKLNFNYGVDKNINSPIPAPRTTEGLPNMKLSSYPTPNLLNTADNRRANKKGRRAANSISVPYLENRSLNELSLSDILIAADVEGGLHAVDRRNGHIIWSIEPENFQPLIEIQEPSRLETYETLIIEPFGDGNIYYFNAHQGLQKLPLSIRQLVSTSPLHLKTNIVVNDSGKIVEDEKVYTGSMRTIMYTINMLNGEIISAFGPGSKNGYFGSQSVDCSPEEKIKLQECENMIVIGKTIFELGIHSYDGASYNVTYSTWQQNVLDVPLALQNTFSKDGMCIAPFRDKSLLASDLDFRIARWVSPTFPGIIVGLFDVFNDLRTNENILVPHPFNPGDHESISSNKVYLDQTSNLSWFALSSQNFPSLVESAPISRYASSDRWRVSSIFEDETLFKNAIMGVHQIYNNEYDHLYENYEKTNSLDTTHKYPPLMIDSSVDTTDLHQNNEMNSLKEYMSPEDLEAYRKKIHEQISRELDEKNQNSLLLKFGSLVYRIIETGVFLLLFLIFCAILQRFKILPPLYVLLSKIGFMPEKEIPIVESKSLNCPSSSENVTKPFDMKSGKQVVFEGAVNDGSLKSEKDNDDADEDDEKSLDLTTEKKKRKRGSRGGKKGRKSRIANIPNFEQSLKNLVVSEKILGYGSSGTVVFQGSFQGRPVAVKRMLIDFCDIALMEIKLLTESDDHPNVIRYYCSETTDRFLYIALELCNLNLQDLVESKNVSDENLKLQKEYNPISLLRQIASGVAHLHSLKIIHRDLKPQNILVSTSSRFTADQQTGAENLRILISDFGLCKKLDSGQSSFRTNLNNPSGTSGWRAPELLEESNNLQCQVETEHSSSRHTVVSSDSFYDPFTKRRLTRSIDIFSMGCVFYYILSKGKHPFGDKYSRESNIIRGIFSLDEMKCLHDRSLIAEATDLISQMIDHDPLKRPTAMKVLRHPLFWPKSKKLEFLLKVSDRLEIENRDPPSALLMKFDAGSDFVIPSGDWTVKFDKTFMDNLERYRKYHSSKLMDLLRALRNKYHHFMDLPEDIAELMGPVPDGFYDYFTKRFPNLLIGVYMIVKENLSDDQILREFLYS
METHOD NOTES: IRE1 inhibitors screening (inhibition of transcriptional activator HAC1 in yeast)
Format: cell-based
TEST CONTEXT: in vitro screening; IRE1 activity of less than 80% = retained as IRE1 inhibitor
REPORTED PROPERTY: μ (% activation) ± σ (%)

INSERT INTO results (molecule, reported_property, recorded_result) VALUES
  ('COc1c(OC)c(O)c2c(=O)c(O)c(-c3ccccc3)oc2c1OC [3,5-dihydroxy-6,7,8-trimethoxyflavone]', 'μ (% activation) ± σ', 98.3),
  ('CC(C)=C/C=C/C(C)=C/[C@H]1CC[C@@H]2[C@@]3(C)CC[C@H](O)C(C)(C)[C@@H]3CC[C@@]2(C)[C@@]12COC(=O)C2', 'μ (% activation) ± σ', 102.5),
  ('CCCC(=O)c1c(O)c(CC=C(C)C)c2oc(=O)cc(-c3ccccc3)c2c1O', 'μ (% activation) ± σ', 102.4),
  ('CC(C)=CCC/C(C)=C/COc1c2ccoc2cc2oc(=O)ccc12', 'μ (% activation) ± σ', 103.5),
  ('O=c1c(O)c(-c2ccc(O)c(O)c2)oc2cc(O)cc(O)c12', 'μ (% activation) ± σ', 98.5),
  ('Cc1cc(=O)oc2cc(O)cc(O)c12 [5,7-dihydroxy-4-methyl coumarin]', 'μ (% activation) ± σ', 104.0),
  ('C=CCc1ccc(O)c(-c2ccc(O)c(CC=C)c2)c1', 'μ (% activation) ± σ', 93.9),
  ('CC(=O)O[C@H]1C(=O)c2c(O)cc(O)cc2O[C@@H]1c1ccccc1 [Pinobanksine 3-O-acetate]', 'μ (% activation) ± σ', 100.3),
  ('COc1cc2c(cc1OC)[C@@H]1Cc3ccc(OC)c(OC)c3CN1CC2 [Tétrahydropalmatine]', 'μ (% activation) ± σ', 101.8),
  ('COc1c(O)ccc2c(=O)c3c(O)cc4c(c3oc12)C(C)(C)C(C)O4 (stereo not shown)', 'μ (% activation) ± σ', 91.6),
  ('C=CC(C)(C)c1c(OC)cc(O)c2c(=O)c3ccc(O)c(O)c3oc12', 'μ (% activation) ± σ', 94.3),
  ('CC(C)=CCOC(=O)/C=C/c1ccc(O)c(O)c1 [Prenyl caffeate]', 'μ (% activation) ± σ', 102.4),
  ('COc1c(O)cc2oc3cc4c(c(O)c3c(=O)c2c1CC=C(C)C)C=CC(C)(C)O4 [9-hydroxycalabaxanthone]', 'μ (% activation) ± σ', 103.5),
  ('O=c1c2cc(O)ccc2oc2c(O)c(O)c(O)c(O)c12 [2,5,6,7,8-Pentahydroxyxanthone]', 'μ (% activation) ± σ', 102.3),
  ('COc1ccc2cc1Oc1ccc(cc1)C[C@H]1c3c(cc4c(c3Oc3cc5c(cc3OC)CCN(C)[C@@H]5C2)OCO4)CCN1C [Cepharantine]', 'μ (% activation) ± σ', 102.2),
  ('CC(C)=CCc1c(O)cc2oc3c(O)cccc3c(=O)c2c1O [1,3,5-trihydroxy-2-prenylxanthone]', 'μ (% activation) ± σ', 57.4),
  ('C=CC(C)(C)c1c2c(c(O)c3c(=O)c4cccc(O)c4oc13)C=CC(C)(C)O2', 'μ (% activation) ± σ', 104.2),
  ('COc1cc2c(cc1OC)C1Cc3ccc(OC)c(OC)c3C(=O)N1CC2 (racemic) [(±)-8-Oxotetrahydropalmatine]', 'μ (% activation) ± σ', 99.6),
  ('COc1c(O)cc2oc3cc(O)c(CC=C(C)C)c(O)c3c(=O)c2c1CC=C(C)C', 'μ (% activation) ± σ', 67.5),
  ('O=C(/C=C/c1ccc(O)c(O)c1)OC/C=C/c1ccccc1 [Cinnamyl caffeate]', 'μ (% activation) ± σ', 73.4),
  ('CC1=C[C@H]2c3c(c(O)c(O)c4oc5cc(O)cc(O)c5c(=O)c34)[C@H](c3cc(O)c(O)c4oc5cc(O)cc(O)c5c(=O)c34)[C@H]2C(C)(C)C1', 'μ (% activation) ± σ', 96.8),
  ('O=C(/C=C/c1ccc(O)c(O)c1)OCc1ccccc1 [Benzyl caffeate]', 'μ (% activation) ± σ', 104.6),
  ('COc1ccc2c(c[n+](C)c3c4cc5c(cc4ccc23)OCO5)c1OC', 'μ (% activation) ± σ', 103.2),
  ('CC(C)=CCc1c(O)c(CC=C(C)C)c2oc3c(O)cccc3c(=O)c2c1O', 'μ (% activation) ± σ', 96.6),
  ('CC(C)=CCc1c(O)cc2oc3ccc4c(c3c(=O)c2c1O)C=CC(C)(C)O4', 'μ (% activation) ± σ', 104.6),
  ('COc1cccc2c1C(=O)c1nccc3cc4c(c-2c13)OCO4', 'μ (% activation) ± σ', 77.5),
  ('CC(C)=CCc1c(O)cc(O)c2c(=O)c3cccc(O)c3oc12 [1,3,5-trihydroxy-4-prenylxanthone]', 'μ (% activation) ± σ', 70.9),
  ('CC1=CC(=O)C(C(C)C)=CC1=O', 'μ (% activation) ± σ', 104.3),
  ('O=C1c2c(O)cc(O)cc2O[C@H](c2ccccc2)[C@H]1O', 'μ (% activation) ± σ', 101.5),
  ('C[C@H]1C(=O)CC[C@@H]2[C@]1(C)CC[C@H]1[C@@]2(C)CC[C@@]2(C)[C@@H]3CC(C)(C)CC[C@]3(C)CC[C@]12C', 'μ (% activation) ± σ', 104.6),
  ('CC(C)=CCc1c(O)cc2oc3ccc(O)cc3c(=O)c2c1O [1,3,7-trihydroxy-2-prenylxanthone]', 'μ (% activation) ± σ', 89.7);
